Provenance of the data: ChEMBL document CHEMBL1201862

Tested on: SF-539
Assay: NCI tumour cell line growth inhibition, 48 h
Active and inactive are the calls of the source. Rule as the data show it: active = GI50 up to about 1.1 µM and inactive = higher.
# GI50 annotations

Here's what some known entries look like.
> print(dat)
                                   molecule               result
1  Cc1ccc(C)c(NC(=O)C(=O)C(C2C(C)CC(=O)C2CC(=O)O)[N+](=O)[O-])c1 (centres undefined)  > 100 µM (inactive)
2  CC1=NNC(=O)C1C1CC(c2c[nH]c3ccccc23)=NN(C(N)=O)C1=O (centres undefined)   91.4 µM (inactive)
3  O=C(C(=O)c1cc(-c2ccccc2)nc2ccc3ccccc3c12)c1ccccc1   32.1 µM (inactive)
4     O=C(Nc1cccc2ccccc12)Oc1ccccc1C1CCCCC1   17.5 µM (inactive)
5  CCOc1ccc2nc(NC(=O)C(=O)C(C(=O)c3ccccc3F)C3OC(=O)c4ccccc43)sc2c1 (centres undefined)   10.3 µM (inactive)
6  CCOc1ccc(/N=N/C2C(=O)N(C(=O)CC(=O)Nc3ccc(C)cc3)N=C2C)cc1 (centres undefined)   14.8 µM (inactive)
7  CCOC(=O)/C(=C\Nc1c(C)n(C)n(-c2ccccc2)c1=O)C(=O)c1ccccc1  > 100 µM (inactive)
8  N=C1CCCC1C(=S)SCCC(N)=O (centres undefined)  > 100 µM (inactive)

Here is the next item to consider.
Let me check: COc1c(/C=C/C(C)(C)O)cc(C2CC(=O)c3c(O)cc(O)cc3O2)cc1CC=C(C)C (centres undefined) , system SF-539, measured GI50 is 9.4 µM (inactive)

---

Tested on: SK-MEL-28
Test: NCI tumour cell line growth inhibition, 48 h
Activity calls are given as the source filed them. Rule as the data show it: active = GI50 up to about 1.1 µM and inactive = higher.
assay-readout: GI50

> print(dat)
                                   molecule               result
1      CN(C)/N=C1/CCC(C(F)(F)F)(C(F)(F)F)O1   39.6 µM (inactive)
2  CC1=NN(C(=O)CSc2nnc(SCC(=O)N3N=C(C)CC3(O)c3ccccc3)s2)C(O)(c2ccccc2)C1 (stereo not given)  > 100 µM (inactive)
3  O=C(Cn1c(=O)oc2ccccc21)N(c1ccccc1)c1ccccc1  > 100 µM (inactive)
4       COc1ccc(N2C(=O)c3cccnc3S2(=O)=O)cc1  > 100 µM (inactive)
5  COc1cc(/C=C2\N=C(c3ccccc3)N(c3nc4c(OC)ccc(OC)c4s3)C2=O)cc(OC)c1OC  > 100 µM (inactive)
6  CC(C)(C)OC(=O)NC1CCC(C(C)(C)C)CC1 (stereo not given)  > 100 µM (inactive)
7      Cc1c2n(c3ccccc13)S(=O)(=O)c1ccccc1-2  > 100 µM (inactive)
8                COc1ccc(C2=NC(C)(C)CO2)cc1  > 100 µM (inactive)
9          COc1ccc2cc(NC(=O)Nn3cnnc3)ccc2c1  > 100 µM (inactive)

Now for a further molecule.
Per the records, this molecule ( c1ccc2c3c([nH]c2c1)C1CCCN1CC3 (stereo not given) ) has GI50 equal to > 10 µM (inactive)

---

# GI50 per entry
Test system: CAKI-1
Test: NCI tumour cell line growth inhibition, 48 h
Active and inactive are the calls of the source. Cut-off read from the data, not from the text of the source: active = GI50 up to about 1.1 µM and inactive = higher.

compound	test-target	GI50
COC1/C=C\C=C(/C)C(=O)NC2=CC(=O)C(N)=C(CC(C)CC(OC)C(O)C(C)C=C(C)C1OC(N)=O)C2=O (centres undefined)	CAKI-1	0.977 µM (active)
CCCCC(=O)OC[n+]1ccc(-c2c(COC(=O)NC(C)C)c(COC(=O)NC(C)C)c3n2CCC3)cc1	CAKI-1	24.9 µM (inactive)
COc1ccc(C2=NC(C)(C)CO2)cc1	CAKI-1	> 100 µM (inactive)
[O-][S+]1[C@H](c2ccccc2)c2c(-c3ccccc3)sc(-c3ccccc3)c2[C@@H]1c1ccccc1 (some centres undefined)	CAKI-1	15.2 µM (inactive)
O=C(OCC(Cl)(Cl)Cl)N1CC[C@@H](C2CCCCC2)C1	CAKI-1	27 µM (inactive)
C=C(C)C12CC3CC(/C(=N/O)C(C1)/C3=N\O)[C@@]2(C)O (some centres undefined)	CAKI-1	> 100 µM (inactive)
O=C(CC/C(CC(=O)c1ccc(Cl)cc1)=N/O)Nc1ccc(Cl)c(Cl)c1	CAKI-1	86.1 µM (inactive)
O=C(O)c1nc2ccccc2nc1Nc1ccc(F)cc1	CAKI-1	20.9 µM (inactive)

The compound `CC(C)c1c(O[Si](C(C)C)(C(C)C)C(C)C)cc2c(c1O)CC[C@H]1C(C)(C)CCC[C@]21C` showed GI50 equal to > 100 µM (inactive)

GI50 reported for this compound `CCCCCCNCCCNc1c2cc(OC)ccc2nc2cccc([N+](=O)[O-])c12` : 0.211 µM (active)

Entry `COc1cc(/C=C/C(C)=O)ccc1OP(=O)(O)O` ; GI50 = > 100 µM (inactive)

Measured GI50 of CCC1(c2ccc(N3C(=O)c4cc(OC)c(OC)cc4C3=O)cc2)CCC(=O)NC1=O (centres undefined) : > 10 µM (inactive)

Entry `CC(=O)O[C@@H]1CN(S(=O)(=O)c2ccc(C)cc2)C[C@@H]1C1CCCCC1` , GI50 reported as 19 µM (inactive)

The compound listed as `O=C1COc2cc(NC(=S)Nc3ccccc3)ccc2N1` shows GI50 equal to > 100 µM (inactive)

GI50 reported for this compound O=C1C2=C(c3ccccc31)C(c1ccccc1Cl)N1C(=O)CSC1=N2 (centres undefined) : > 100 µM (inactive)

Quick note, GI50 for Cc1ccc(C2SC(=N)Nc3c2c(C)nn3C(=O)c2ccc(Cl)cc2)cc1 (centres undefined) landed at > 10 µM (inactive)
